Data provenance: the supplement of paper PMC9170038

- System: MS2 coat protein
- TEST_SUMMARY: apparent KD of MS2 coat protein; higher = weaker reporter binding
- EXPERIMENTAL_CONTEXT: Eterna round: R107; input ligand: arginine 13.2 mM
apparent KD of MS2 coat protein listing for selected sequences.
Hi! Could you send only the number? It should be in nM, unit omitted.

Use these answered entries as a reference point.
GUAUGGAAACAUACUUGGGUAUCAUGAGAUACCAGUACAGAAAUGUACCCUUGGCAGCUCAAGCAUACAUGAGGAUCACCCAUGU [Ex Theophylline A 8] :: 22.5
GACUAUAUGAUAUGUCAGAAAUCCUCGAAACGAGGACCGGUACGGCCGCCACUCGAGUGAUAAACAUGAGGAUCACCCAUGUAAA [Tryp A Ex t2] :: 21
AGCUCGCAUCCUCUAGCGUCAAAGACGCGUCGAGGACCGGUACGGCCGCCACUCGACUUGAGGAUCACCCAAGUCUAAGCGAGCA [TrypAX 11 #SwitchBubble #AlternativeMS2 #MS2Late #CuTurnoff] :: 54.8
UGUAUGUGAUCUGAUACCAGAGUGAAUAAACGCGAAAGCGCCUGAGGAUCACCCUGGUAACUCCCUUGGCAGCAGAUCGCAUACU :: 119
UAAACAUGAGGAUCACCCAUGUUGGAUGAAGGAGCGACCAGAGGGUCAGGUAGGUCGCAUCACAUGAGGAUCACCCAUGUCAUUU [DOUBLE!!! :-D #12] :: 59.1
CCUAUGCAGUCGGCCGCCACUGAACAUGAGGAUCACCCAUGUUUUUAUAAAUAUGGUCCUAUAAUCAGGACCGGGACUGUAUAGG [Ex Tryptophan B 9] :: 38.3

# input sequence: AUCAUAAUAGACUCGUUAGAUUAUAUGGAACGAGGACCGGUACGGCCGCCACUCGUGAUGUACAUGAGGAUCACCCAUGUUAGCA [JR_SSTryptoA_Sub002] ; wanted: its apparent KD of MS2 coat protein
13.1

Then GGUGGCGUGACGGAUACCAGCCACCGCCGCAAGGCCACAUGAGGAUCACCCAUGUUGGGUGGCCCUUGGCAGCUGUCGUGCGGCG [#1 Same State - Theophylline B Attempt #21 (HarryS)] ?
121

Then GGAUAGGACACGGCCGCCACUACCUAGGAUACUAGCAACAUUUGGGUAUAUGAGGAUCACCCAUAUAGGACCGGGUGUCCUAUCG ?
48.5

Then CGAUCUUUCGAAAGAAGGAUCGAUUCUGAUACCAGAGACGAAAGUCUCCCUUGGCAGCAGUGCCAACAUGAGGAUCACCCAUGUA [Theophylline A 8] ?
26.4

Then ACGAUAGGACAUGAGGAUCACCCAUGUGAUACCAGCCUGGAAACAGGCCCUUGGCAGCACAAAUACUCCAGAAACCUAUCGAAAA [MAT - Exclusion Theophlline A - Mod of Eli - D5] ?
103

Then GGCAGUCAUAGGAGGGCAAAUAUACUCGAAGGAGCGUCAUAGUAGGCAGGUAGGUCGCGAGACAUGAGGAUCACCCAUGUAGAGA [wwzmullin] ?
20.2

Then AUGGACGGCGAUCUGGGUUUACCAGAUCGGCGAGGACCGGUACGGCCGCCACUCGUGUUUAUUUAACAUGAGGAUCACCCAUGUA [SSTA #2] ?
62.4

Then UUUGAAAUAACAGAUACCAGCGUGUUAUAAAACAUGAGGAUCACCCAUGUAGUGAUCAAGCGCCCUUGGCAGCUGGUAUUUUAGG [7.F] ?
118

Then UCGUGUAUAUCGGAUACCAGUGAGAAGGAUACAUGAGGAUCACCCAUGUGAGUUGAUGUACACCCUUGGCAGCUGUAUAUAUCUA [.plullin] ?
36

Then CCCGUAAAGGCGGCCGCCACUGUAUGACAUGAGGAUCACCCAUGUAGGGAAAAUGCGAUGGUCGUCAGGACCGGGCCUCUGGCAU [theeternabot_exclusion_MS2_Trp_B_5] ?
17.4

Then UGUAUGUGAUCUGAUACCAGUCCAACUGGUAAAAUAUGAGGAUCACCCAUAUAAAAUUGGGACCCUUGGCAGCAGAUCGCAUACU ?
108

Then AAAGGUCGCAAUAAAUCUCCUACAUGUGAAGGAGCGCGCGAAAGCGCAGGUAGGUCGCACAUGAGGAUCACCCAUGUGAGCGACC [MAT - Exclusion Arginine A - Mod of Eli - D3] ?
9.41

Then UAUAUAUAUAGGGAUACCAGCAGAGAAAACGUUUAUCCUAACAUGAGGAUCACCCAUGUAUGCCCUUGGCAGCUUUAUAUAUAUA [8.F] ?
23.6

Then ACAUUUAACUGAAGGAGCGUGAUAUUUACAUGAGGAUCACCCAUGUCUAUCAUGAGAUAUUCACAGGUAGGUCGCAGACUAAUGA [JR_ExcArginiB_Sub005] ?
38.9

Then AGAGUCAGACAAAAGUCUGGCUCAGCCGAAGGAGCGUCCGAAAGGACAGGUAGGUCGCGGUUCCAUGAGGAUCACCCAUGGUCCU [ArgAS 28 #OpenEnded #AlternativeMS2] ?
47.1

Then AGUCUGGACUCGGCCGCCACUCGUGAUGCUUUGGCACAUGAGGAUCACCCAUGUGGUCGGCCUUAGAGGACCGGGAGUACCAGCU [Zaraoned] ?
38.6

Then CACGAAAGAUCGGCCGCCACUAACCUGUGUGUACUAGCACAUGAGGAUCACCCAUGUUCUUGCGUUAGGACCGGGAUUGAGCGUG [#04 Exclusion Tryptophan B] ?
20.9
